All values here come from the supplement of paper PMC9233669.

# Test system: biotinyl-Met-oxazolone
# test: self-aminoacylation, catalytic enhancement (BMO) (fold over background); higher = more active; k-Seq, kA / k0A0; sequences stand for … in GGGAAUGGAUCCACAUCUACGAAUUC…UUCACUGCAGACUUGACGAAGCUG
This sample holds only a part of the variants without activity.
self-aminoacylation by entry:
Would you mind answering with just the numeric figure?

Q) Record lookup: for biotinyl-Met-oxazolone, what self-aminoacylation belongs to CGACUUCAAACAAUCGGUCGG [Fam1A.1 aminoacylation ribozyme variant] ?
A) 1.99

Q) And what about the sequence CUACUUCACUCAAUCGGUCUG [Fam1A.1 aminoacylation ribozyme variant] ?
A) 0.72

Q) Then AUUCACCUAGGUGAUCCGGUG [Fam2.2 aminoacylation ribozyme variant] ?
A) 5.12

Q) And for AUUACCCGUGUCAUCGAGUGA [Fam2.1 aminoacylation ribozyme variant] ?
A) 8.54

Q) // query: CUACUUCUAACAAUCGAUCUG [Fam1A.1 aminoacylation ribozyme variant]
A) 0.522

Q) Try this sequence too: AAGUAUGCUAAUAGUCGGAAG [Fam3.1 aminoacylation ribozyme variant]
A) 1.72

====

# System: biotinyl-Leu-oxazolone
# test: self-aminoacylation, catalytic enhancement (BLO) (fold over background); higher = more active; k-Seq, kA / k0A0; sequences stand for … in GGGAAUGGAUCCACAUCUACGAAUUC…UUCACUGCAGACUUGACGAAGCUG
Variants at the floor of the assay were thinned out.
Kind request: treat 1 as inclusive, so self-aminoacylation at 1 or higher is 1, anything lower is 0.

Take a look at these entries with their results.
CUACUUCAAAUAAGCGGUCUG [Fam1A.1 aminoacylation ribozyme variant]	0
AUUCACUUAGGUCAUUGGGUG [Fam2.2 aminoacylation ribozyme variant]	1
GUACUUCAAACAAACGGUCUG [Fam1A.1 aminoacylation ribozyme variant]	1

# next sequence below
Q) Is the recorded value of self-aminoacylation equal to or greater than 1 for this sequence? AUUACCCCGGUCAUGGAGUGA [Fam2.1 aminoacylation ribozyme variant]
A) 1

====

# Tested on: biotinyl-Ile-oxazolone
# test: self-aminoacylation, catalytic enhancement (BIO) (fold over background); higher = more active; k-Seq, kA / k0A0; sequences stand for … in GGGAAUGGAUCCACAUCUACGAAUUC…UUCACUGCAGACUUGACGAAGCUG
This sample holds only a part of the variants without activity.
Where self-aminoacylation equals or exceeds 0.9, the correct label is condition met; where it does not, the label is condition not met.

Please review the following examples before continuing.
UAGUUUGCUAAUAUUCGCAAG [Fam3.1 aminoacylation ribozyme variant]	condition met
AUUCACGUAGGUCAUCUGGUG [Fam2.2 aminoacylation ribozyme variant]	condition met

Q) Given the entry AUUACCCUGGUCAUCGAGAGU [Fam2.1 aminoacylation ribozyme variant] , answer whether its self-aminoacylation meets or surpasses 0.9.
A) condition not met

Q) Would you kindly repeat that for ACACACUUCAAGAAAUCGGUC [Fam1B.1 aminoacylation ribozyme variant] ?
A) condition met

Q) What do you have for CUACUUCAUACAAACGGUCUG [Fam1A.1 aminoacylation ribozyme variant] ?
A) condition met

====

# Test system: biotinyl-Met-oxazolone
# test: self-aminoacylation, catalytic enhancement (BMO) (fold over background); higher = more active; k-Seq, kA / k0A0; sequences stand for … in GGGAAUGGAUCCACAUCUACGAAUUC…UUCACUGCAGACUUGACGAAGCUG
Fewer inactive variants are shown than the library holds.
Reported self-aminoacylation values for the following sequences.
Note: the reply should be a number with no unit written.

Sample records with self-aminoacylation:
AAGUUUGCGAAUAGUCACAAG [Fam3.1 aminoacylation ribozyme variant]	0.933
AAGUUUGCUCAUAGUCUCAAG [Fam3.1 aminoacylation ribozyme variant]	0.869
AUUACCCUGGUCAUCGAGUUG [Fam2.1 aminoacylation ribozyme variant]	2.14
CUACUUCCAACAAUCCGUCUG [Fam1A.1 aminoacylation ribozyme variant]	0.771
AUUACCCUGGUCAUCGGGUGG [Fam2.1 aminoacylation ribozyme variant]	68

Q) Looking for the measured self-aminoacylation of AAGCUUGCUACUAGUCGCAAG [Fam3.1 aminoacylation ribozyme variant] , can you help?
A) 2.37

====

Measured self-aminoacylation, listed per entry for reference.
# System: biotinyl-Ile-oxazolone
# test: self-aminoacylation, catalytic enhancement (BIO) (fold over background); higher = more active; k-Seq, kA / k0A0; sequences stand for … in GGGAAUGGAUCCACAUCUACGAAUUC…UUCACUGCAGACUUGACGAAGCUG
This sample holds only a part of the variants without activity.
Would you mind answering with just the numeric figure?

Record excerpt, results attached:
CCACACCUCAAGCAAUCGAUC [Fam1B.1 aminoacylation ribozyme variant]	0.643
GUACUUCAAACAAUCGGUCUU [Fam1A.1 aminoacylation ribozyme variant]	1.43
CCACACUUCGAGCGAUCGGUC [Fam1B.1 aminoacylation ribozyme variant]	1.43
AGUACACUGGUCAUCGAGUGA [Fam2.1 aminoacylation ribozyme variant]	3.01
ACUCACCUAGGUCAUCUGGUG [Fam2.2 aminoacylation ribozyme variant]	1.68
CUACACUUCAAGCUAUCGGUC [Fam1B.1 aminoacylation ribozyme variant]	0.87

Q) Return self-aminoacylation measured with biotinyl-Ile-oxazolone given this sequence: AUUACCCUGGGCACCGAGUGA [Fam2.1 aminoacylation ribozyme variant]
A) 3.37

Q) Now consider AAUGCCCUGGUCAUCGAGUGA [Fam2.1 aminoacylation ribozyme variant] .
A) 4.61

====

# Tested on: biotinyl-Val-oxazolone
# test: self-aminoacylation, catalytic enhancement (BVO) (fold over background); higher = more active; k-Seq, kA / k0A0; sequences stand for … in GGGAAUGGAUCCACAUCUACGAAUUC…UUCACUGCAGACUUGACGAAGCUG
Variants at the floor of the assay were thinned out.
Quick reference for self-aminoacylation among some sequences
Answer as a number with no unit attached.

Before answering, review these 3 worked examples.
AUUAACCUGGUCAUCGAGUGC [Fam2.1 aminoacylation ribozyme variant]	1.1
CUACACUUCAAACAAUCGGUC [Fam1B.1 aminoacylation ribozyme variant]	1.27
CCACCUUUCAAGCAAUCGGUC [Fam1B.1 aminoacylation ribozyme variant]	1.72

Next sequence, please.
Q) Given the entry CUAUUUCAAAAAAUCGGUCUG [Fam1A.1 aminoacylation ribozyme variant] , what self-aminoacylation was observed with biotinyl-Val-oxazolone?
A) 0.85

====

Here the recorded self-aminoacylation is given for each entry.
# Tested on: biotinyl-Phe-oxazolone
# test: self-aminoacylation, catalytic enhancement (BFO) (fold over background); higher = more active; k-Seq, kA / k0A0; sequences stand for … in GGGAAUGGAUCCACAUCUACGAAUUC…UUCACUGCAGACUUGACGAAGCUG
Fewer inactive variants are shown than the library holds.
Please state the value as a number alone, without comment.

CCACACUCGAAGCAAUCGGUC [Fam1B.1 aminoacylation ribozyme variant]	1.07
CUACUUCAAACAAUCGGUGAG [Fam1A.1 aminoacylation ribozyme variant]	1.5
AAGUUUGCUGAUAGGCGCAAG [Fam3.1 aminoacylation ribozyme variant]	2.19
AUUCACAUAGGUCAUCGGGCG [Fam2.2 aminoacylation ribozyme variant]	6.68
CCACACUUCUAGCAAUCAGUC [Fam1B.1 aminoacylation ribozyme variant]	1.14
CCACACUUCAAGGUAUCGGUC [Fam1B.1 aminoacylation ribozyme variant]	0.829

Q) What value of self-aminoacylation has been reported for the following sequence? CCACACUUCAAGCUAUCGGUG [Fam1B.1 aminoacylation ribozyme variant]
A) 33

Q) What do you get for CCACACUUCAAGCAUUCGAUC [Fam1B.1 aminoacylation ribozyme variant] ?
A) 1.11

Q) Another sequence: AUUACCAAGGUCAUCGAGUGA [Fam2.1 aminoacylation ribozyme variant]
A) 43.2

Q) Check AUUUCCCUGGUCAACGAGUGA [Fam2.1 aminoacylation ribozyme variant] too.
A) 42.4

Q) Follow-up entry: CGACACUUCAAGUAAUCGGUC [Fam1B.1 aminoacylation ribozyme variant]
A) 3.36

Q) Moving on to the next sequence: AUUACCCUGCUCAUCUAGUGA [Fam2.1 aminoacylation ribozyme variant]
A) 29.8

Q) Moving on to AUUACCCUGGACAUCGAGGGA [Fam2.1 aminoacylation ribozyme variant]
A) 1.26

Q) Now this one: AUUAACCUAGGUCAUUGGGUG [Fam2.2 aminoacylation ribozyme variant]
A) 15.2

Q) Likewise for AUUACCCUGGUCAGCGAGUGC [Fam2.1 aminoacylation ribozyme variant] ?
A) 8.87

Q) Now try AUCACCCUGGUCAUCGCGUGA [Fam2.1 aminoacylation ribozyme variant] .
A) 215

Q) Also need AUUGCCCUGGUCAUCCAGUGA [Fam2.1 aminoacylation ribozyme variant] , thanks.
A) 44.4

Q) Item: AAGUAAGCUAAUAGUCGCAAG [Fam3.1 aminoacylation ribozyme variant]
A) 2.82

====

# System: biotinyl-Phe-oxazolone
# test: self-aminoacylation, catalytic enhancement (BFO) (fold over background); higher = more active; k-Seq, kA / k0A0; sequences stand for … in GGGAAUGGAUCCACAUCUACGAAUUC…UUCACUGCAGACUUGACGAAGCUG
Fewer inactive variants are shown than the library holds.
readoutLabel: self-aminoacylation
Please state the value as a number alone, without comment.

In the examples that follow, each entry is paired with its recorded self-aminoacylation.
UUUCACCUAGGUCAUCGGAUG [Fam2.2 aminoacylation ribozyme variant]	0.842
AUUCACCUAGCUUAUCGGGUG [Fam2.2 aminoacylation ribozyme variant]	4.71
AAGUUUGGUAAGAGUCGCAAG [Fam3.1 aminoacylation ribozyme variant]	1.7

Q) Field request: self-aminoacylation | item: UUUACCCUGGUCAGCGAGUGA [Fam2.1 aminoacylation ribozyme variant]
A) 16.3

Q) Follow-up entry: AUUCCCCUGGUCAUCGAGUUA [Fam2.1 aminoacylation ribozyme variant]
A) 1.25
